Hello, the source for this data is ChEMBL document CHEMBL3872218, in case you need it.

Test: Drug uptake in Sprague-Dawley rat brain at 10 mg/kg, iv at 2 hrs post dose
Type: ADME, organism-based
Conditions: read-out: Drug uptake
endpoint.label: concentration at 2 h (ng/mL)

[[record]]
smiles_notation = "CC(C)Cc1cc(CNS(=O)(=O)c2cccc(F)c2)nn1-c1ccccc1"
endpoint_label = "concentration at 2 h"
assay_value = 366


###

Target: CYP1A2 (Homo sapiens, UniProt P05177)
Experiment: Inhibition of human CYP1A2 assessed as remaining activity at 10 uM using vivid CYP450 substrate measured after 15 mins by fluorescence assay relative to alpha-naphthoflavon
Assay type: ADME
Conditions: probe vivid CYP450 substrate, read-out: Activity
endpoint.label: activity at 0.25 h, 10 µM (%)

[[record]]
smiles_notation = "CC(C)Cc1cc(CNS(=O)(=O)c2cccc(F)c2)nn1-c1ccccc1"
endpoint_label = "activity at 0.25 h, 10 µM"
assay_value = 45.6

[[record]]
smiles_notation = "CC(C)Cc1cc(CNS(=O)(=O)c2ccccc2)nn1-c1ccccc1"
endpoint_label = "activity at 0.25 h, 10 µM"
assay_value = 36.6


###

Test: Apparent volume of distribution at steady state in Sprague-Dawley rat at 10 mg/kg, iv
Assay type: ADME, organism-based
Conditions: in vivo, read-out: Vdss(app)
endpoint.label: Vd

[[record]]
smiles_notation = "CC(C)Cc1cc(CNS(=O)(=O)c2cccc(F)c2)nn1-c1ccccc1"
assay_value = "4.95 L/kg"


###

Experiment: AUClast in Sprague-Dawley rat at 10 mg/kg, po
Type: ADME, organism-based
Design: dose 10 mg/kg, route oral, time 0 - last
Conditions: in vivo
endpoint.label: AUC(0-t) (ng·h/mL)

[[record]]
smiles_notation = "CC(C)Cc1cc(CNS(=O)(=O)c2cccc(F)c2)nn1-c1ccccc1"
result_unit = "ng·h/mL"
assay_value = 164


###

Assay: Total clearance in Sprague-Dawley rat at 10 mg/kg, iv
Format: ADME, organism-based
Details: in vivo
endpoint.label: clearance (mL/min/kg)

[[record]]
smiles_notation = "CC(C)Cc1cc(CNS(=O)(=O)c2cccc(F)c2)nn1-c1ccccc1"
endpoint_label = "clearance"
assay_value = 83.8


###

Tested on: Rattus norvegicus
Experiment: Antineuropathic pain activity in rat spinal nerve ligation model assessed as effect on cold allodynia by measuring frequency of paw withdrawal at 100 mg/kg, po measured at 1 hr relative to gabapentin
Type: functional
endpoint.label: MPE (%)

[[record]]
smiles_notation = "CC(C)Cc1cc(CNS(=O)(=O)CCc2ccccc2)nn1-c1ccccc1"
assayed_system = "Rattus norvegicus"
result_unit = "%"
assay_value = 7

[[record]]
smiles_notation = "COCC(=O)O[C@]1(CCN(C)CCCc2nc3ccccc3[nH]2)CCc2cc(F)ccc2[C@@H]1C(C)C"
assayed_system = "Rattus norvegicus"
result_unit = "%"
assay_value = 57.37

[[record]]
smiles_notation = "CC(C)Cc1cc(CNS(=O)(=O)c2cccc(F)c2)nn1-c1ccccc1"
assayed_system = "Rattus norvegicus"
result_unit = "%"
assay_value = 202.07

[[record]]
smiles_notation = "CC(C)Cc1cc(CNS(=O)(=O)c2ccccc2)nn1-c1ccccc1"
assayed_system = "Rattus norvegicus"
result_unit = "%"
assay_value = 236.08


###

Assay: AUC (0 to infinity) in Sprague-Dawley rat at 10 mg/kg, po
Type: ADME, organism-based
Design: dose 10 mg/kg, time infinity, route oral
Details: in vivo
endpoint.label: AUC(0-inf) (ng·h/mL)

[[record]]
smiles_notation = "CC(C)Cc1cc(CNS(=O)(=O)c2cccc(F)c2)nn1-c1ccccc1"
assay_value = 168


###

Experiment: Ratio of drug level in brain to plasma in Sprague-Dawley rat at 10 mg/kg, po at 2 hrs post dose
Type: ADME, organism-based
Conditions: read-out: BPR
endpoint.label: Kp at 2 h

[[record]]
smiles_notation = "CC(C)Cc1cc(CNS(=O)(=O)c2cccc(F)c2)nn1-c1ccccc1"
endpoint_label = "Kp at 2 h"
assay_value = 0.19


###

System: Rattus norvegicus
Test: Antineuropathic pain activity in rat spinal nerve ligation model assessed as effect on mechanical allodynia by measuring frequency of paw withdrawal at 100 mg/kg, po measured at 5 hrs relative to control
Type: functional
Give y when the value for MPE is at least 30%. Give n when it is less.

[[record]]
molecule = "CC(C)Cc1cc(CNS(=O)(=O)CCc2ccccc2)nn1-c1ccccc1"
label_class = "n"

[[record]]
molecule = "NCC1(CC(=O)O)CCCCC1 [GABAPENTIN]"
label_class = "y"

[[record]]
molecule = "CC(C)Cc1cc(CNS(=O)(=O)c2cccc(F)c2)nn1-c1ccccc1"
label_class = "n"

[[record]]
molecule = "CC(C)Cc1cc(CNS(=O)(=O)c2ccccc2)nn1-c1ccccc1"
label_class = "y"

[[record]]
molecule = "COCC(=O)O[C@]1(CCN(C)CCCc2nc3ccccc3[nH]2)CCc2cc(F)ccc2[C@@H]1C(C)C [MIBEFRADIL]"
label_class = "y"


###

Test system: Rattus norvegicus
Experiment: Antineuropathic pain activity in rat spinal nerve ligation model assessed as effect on cold allodynia by measuring frequency of paw withdrawal at 100 mg/kg, po measured at 1 hr relative to control
Type: functional
Give satisfied when the value for MPE is at least 30%. Give not satisfied when it is less.

[[record]]
smiles_notation = "CC(C)Cc1cc(CNS(=O)(=O)c2ccccc2)nn1-c1ccccc1"
assayed_system = "Rattus norvegicus"
label_class = "satisfied"

[[record]]
smiles_notation = "NCC1(CC(=O)O)CCCCC1"
assayed_system = "Rattus norvegicus"
label_class = "satisfied"

[[record]]
smiles_notation = "COCC(=O)O[C@]1(CCN(C)CCCc2nc3ccccc3[nH]2)CCc2cc(F)ccc2[C@@H]1C(C)C"
assayed_system = "Rattus norvegicus"
label_class = "not satisfied"

[[record]]
smiles_notation = "CC(C)Cc1cc(CNS(=O)(=O)CCc2ccccc2)nn1-c1ccccc1"
assayed_system = "Rattus norvegicus"
label_class = "not satisfied"

[[record]]
smiles_notation = "CC(C)Cc1cc(CNS(=O)(=O)c2cccc(F)c2)nn1-c1ccccc1"
assayed_system = "Rattus norvegicus"
label_class = "satisfied"


###

Molecular target: Voltage-dependent T-type calcium channel subunit alpha-1H (Homo sapiens, UniProt O95180)
Sequence (O95180 whole entry): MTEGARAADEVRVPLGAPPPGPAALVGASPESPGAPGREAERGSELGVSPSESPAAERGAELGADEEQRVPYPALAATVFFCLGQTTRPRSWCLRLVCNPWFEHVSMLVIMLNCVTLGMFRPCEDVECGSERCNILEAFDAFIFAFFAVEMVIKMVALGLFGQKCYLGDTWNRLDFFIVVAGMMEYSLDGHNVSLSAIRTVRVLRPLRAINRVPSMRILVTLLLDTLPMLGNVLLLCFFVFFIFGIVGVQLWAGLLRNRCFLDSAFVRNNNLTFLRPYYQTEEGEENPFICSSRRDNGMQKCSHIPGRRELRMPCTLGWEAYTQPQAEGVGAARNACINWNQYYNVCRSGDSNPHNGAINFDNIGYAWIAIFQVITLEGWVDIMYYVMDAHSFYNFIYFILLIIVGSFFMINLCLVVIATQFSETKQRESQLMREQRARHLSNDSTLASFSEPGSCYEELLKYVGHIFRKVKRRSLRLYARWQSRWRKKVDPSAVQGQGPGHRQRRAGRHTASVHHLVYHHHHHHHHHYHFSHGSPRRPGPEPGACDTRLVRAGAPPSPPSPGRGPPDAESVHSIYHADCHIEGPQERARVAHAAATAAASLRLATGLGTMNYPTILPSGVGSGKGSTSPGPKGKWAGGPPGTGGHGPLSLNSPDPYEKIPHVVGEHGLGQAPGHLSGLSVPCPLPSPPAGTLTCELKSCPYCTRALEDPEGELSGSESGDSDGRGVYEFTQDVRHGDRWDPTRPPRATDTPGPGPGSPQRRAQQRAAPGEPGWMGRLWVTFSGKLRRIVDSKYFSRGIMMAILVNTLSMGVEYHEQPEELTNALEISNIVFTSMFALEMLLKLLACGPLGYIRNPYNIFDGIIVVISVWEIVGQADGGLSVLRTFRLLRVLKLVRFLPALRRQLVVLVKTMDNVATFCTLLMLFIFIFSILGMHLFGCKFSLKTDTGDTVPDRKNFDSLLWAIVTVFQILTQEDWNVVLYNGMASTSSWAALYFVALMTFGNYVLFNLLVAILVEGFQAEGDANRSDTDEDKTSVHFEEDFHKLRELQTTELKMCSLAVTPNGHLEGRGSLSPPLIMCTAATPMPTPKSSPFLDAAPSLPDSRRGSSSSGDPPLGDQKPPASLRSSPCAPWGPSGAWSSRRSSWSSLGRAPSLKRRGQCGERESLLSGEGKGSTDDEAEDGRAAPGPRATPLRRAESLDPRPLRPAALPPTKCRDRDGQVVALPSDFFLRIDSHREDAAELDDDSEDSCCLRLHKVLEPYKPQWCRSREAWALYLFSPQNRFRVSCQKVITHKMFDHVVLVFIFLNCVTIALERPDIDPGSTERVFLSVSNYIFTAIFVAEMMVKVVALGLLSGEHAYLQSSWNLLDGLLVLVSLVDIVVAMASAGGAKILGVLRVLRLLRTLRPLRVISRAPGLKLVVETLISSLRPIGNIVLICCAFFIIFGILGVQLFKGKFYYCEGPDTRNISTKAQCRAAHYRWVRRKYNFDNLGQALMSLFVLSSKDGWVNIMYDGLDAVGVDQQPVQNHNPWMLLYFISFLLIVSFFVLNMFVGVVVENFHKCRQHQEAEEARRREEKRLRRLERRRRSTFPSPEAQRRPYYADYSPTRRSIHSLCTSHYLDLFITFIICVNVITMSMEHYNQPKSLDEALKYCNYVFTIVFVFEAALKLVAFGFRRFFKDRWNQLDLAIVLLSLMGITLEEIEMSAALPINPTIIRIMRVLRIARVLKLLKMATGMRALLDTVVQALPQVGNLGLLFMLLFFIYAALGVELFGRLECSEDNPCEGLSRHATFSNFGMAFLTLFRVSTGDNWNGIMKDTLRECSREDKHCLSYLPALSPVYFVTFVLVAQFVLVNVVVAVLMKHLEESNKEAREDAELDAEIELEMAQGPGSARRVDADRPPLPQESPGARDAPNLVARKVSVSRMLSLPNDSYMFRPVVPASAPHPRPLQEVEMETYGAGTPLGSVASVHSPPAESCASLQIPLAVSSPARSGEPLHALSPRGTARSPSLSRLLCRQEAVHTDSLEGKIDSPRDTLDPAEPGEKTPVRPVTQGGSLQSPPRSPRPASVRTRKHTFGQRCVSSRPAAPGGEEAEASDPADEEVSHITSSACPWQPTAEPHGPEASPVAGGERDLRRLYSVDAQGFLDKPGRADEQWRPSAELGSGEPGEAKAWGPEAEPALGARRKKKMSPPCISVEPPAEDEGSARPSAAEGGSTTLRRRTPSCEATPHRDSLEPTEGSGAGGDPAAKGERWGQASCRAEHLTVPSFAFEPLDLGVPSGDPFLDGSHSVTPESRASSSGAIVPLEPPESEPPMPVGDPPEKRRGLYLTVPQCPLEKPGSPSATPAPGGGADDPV
Assay: Inhibition of Cav3.2 alpha1H (unknown origin) expressed in HEK293 cells assessed as decrease in KCl-induced depolarization mediated intracellular Ca2+ level at 10 uM by fluo3/AM based high throughput screening assay relative to control
Type: cell-based
endpoint.label: inhibition (%)

[[record]]
smiles_notation = "CC(C)Cc1cc(CNS(=O)(=O)c2cccc3ccccc23)nn1-c1ccccc1"
assayed_system = "Voltage-dependent T-type calcium channel subunit alpha-1H (Homo sapiens, UniProt O95180)"
endpoint_label = "inhibition"
assay_value = 25.2

[[record]]
smiles_notation = "CC(C)Cc1cc(CNS(=O)(=O)c2cccc(F)c2)nn1-c1ccccc1"
assayed_system = "Voltage-dependent T-type calcium channel subunit alpha-1H (Homo sapiens, UniProt O95180)"
endpoint_label = "inhibition"
assay_value = 62.7

[[record]]
smiles_notation = "CC(C)Cc1cc(CNS(=O)(=O)c2ccc3ccccc3c2)nn1-c1ccccc1"
assayed_system = "Voltage-dependent T-type calcium channel subunit alpha-1H (Homo sapiens, UniProt O95180)"
endpoint_label = "inhibition"
assay_value = 24.9

[[record]]
smiles_notation = "Cc1ccc(S(=O)(=O)NCc2cc(CC(C)C)n(-c3ccccc3)n2)cc1"
assayed_system = "Voltage-dependent T-type calcium channel subunit alpha-1H (Homo sapiens, UniProt O95180)"
endpoint_label = "inhibition"
assay_value = 62.2

[[record]]
smiles_notation = "CC(C)(C)n1nc(CNS(=O)(=O)c2ccccc2)cc1-c1cccc(F)c1"
assayed_system = "Voltage-dependent T-type calcium channel subunit alpha-1H (Homo sapiens, UniProt O95180)"
endpoint_label = "inhibition"
assay_value = 53.5

[[record]]
smiles_notation = "Cc1ccc(F)c(S(=O)(=O)NCc2cc(CC(C)C)n(-c3ccccc3)n2)c1"
assayed_system = "Voltage-dependent T-type calcium channel subunit alpha-1H (Homo sapiens, UniProt O95180)"
endpoint_label = "inhibition"
assay_value = 70

[[record]]
smiles_notation = "CC(C)Cc1cc(CNS(=O)(=O)c2ccc(C(C)(C)C)cc2)nn1-c1ccccc1"
assayed_system = "Voltage-dependent T-type calcium channel subunit alpha-1H (Homo sapiens, UniProt O95180)"
endpoint_label = "inhibition"
assay_value = 33.4


###

Catalogue of inhibition values
Target: Voltage-dependent T-type calcium channel subunit alpha-1G (Homo sapiens, UniProt O43497)
Sequence (O43497 whole entry): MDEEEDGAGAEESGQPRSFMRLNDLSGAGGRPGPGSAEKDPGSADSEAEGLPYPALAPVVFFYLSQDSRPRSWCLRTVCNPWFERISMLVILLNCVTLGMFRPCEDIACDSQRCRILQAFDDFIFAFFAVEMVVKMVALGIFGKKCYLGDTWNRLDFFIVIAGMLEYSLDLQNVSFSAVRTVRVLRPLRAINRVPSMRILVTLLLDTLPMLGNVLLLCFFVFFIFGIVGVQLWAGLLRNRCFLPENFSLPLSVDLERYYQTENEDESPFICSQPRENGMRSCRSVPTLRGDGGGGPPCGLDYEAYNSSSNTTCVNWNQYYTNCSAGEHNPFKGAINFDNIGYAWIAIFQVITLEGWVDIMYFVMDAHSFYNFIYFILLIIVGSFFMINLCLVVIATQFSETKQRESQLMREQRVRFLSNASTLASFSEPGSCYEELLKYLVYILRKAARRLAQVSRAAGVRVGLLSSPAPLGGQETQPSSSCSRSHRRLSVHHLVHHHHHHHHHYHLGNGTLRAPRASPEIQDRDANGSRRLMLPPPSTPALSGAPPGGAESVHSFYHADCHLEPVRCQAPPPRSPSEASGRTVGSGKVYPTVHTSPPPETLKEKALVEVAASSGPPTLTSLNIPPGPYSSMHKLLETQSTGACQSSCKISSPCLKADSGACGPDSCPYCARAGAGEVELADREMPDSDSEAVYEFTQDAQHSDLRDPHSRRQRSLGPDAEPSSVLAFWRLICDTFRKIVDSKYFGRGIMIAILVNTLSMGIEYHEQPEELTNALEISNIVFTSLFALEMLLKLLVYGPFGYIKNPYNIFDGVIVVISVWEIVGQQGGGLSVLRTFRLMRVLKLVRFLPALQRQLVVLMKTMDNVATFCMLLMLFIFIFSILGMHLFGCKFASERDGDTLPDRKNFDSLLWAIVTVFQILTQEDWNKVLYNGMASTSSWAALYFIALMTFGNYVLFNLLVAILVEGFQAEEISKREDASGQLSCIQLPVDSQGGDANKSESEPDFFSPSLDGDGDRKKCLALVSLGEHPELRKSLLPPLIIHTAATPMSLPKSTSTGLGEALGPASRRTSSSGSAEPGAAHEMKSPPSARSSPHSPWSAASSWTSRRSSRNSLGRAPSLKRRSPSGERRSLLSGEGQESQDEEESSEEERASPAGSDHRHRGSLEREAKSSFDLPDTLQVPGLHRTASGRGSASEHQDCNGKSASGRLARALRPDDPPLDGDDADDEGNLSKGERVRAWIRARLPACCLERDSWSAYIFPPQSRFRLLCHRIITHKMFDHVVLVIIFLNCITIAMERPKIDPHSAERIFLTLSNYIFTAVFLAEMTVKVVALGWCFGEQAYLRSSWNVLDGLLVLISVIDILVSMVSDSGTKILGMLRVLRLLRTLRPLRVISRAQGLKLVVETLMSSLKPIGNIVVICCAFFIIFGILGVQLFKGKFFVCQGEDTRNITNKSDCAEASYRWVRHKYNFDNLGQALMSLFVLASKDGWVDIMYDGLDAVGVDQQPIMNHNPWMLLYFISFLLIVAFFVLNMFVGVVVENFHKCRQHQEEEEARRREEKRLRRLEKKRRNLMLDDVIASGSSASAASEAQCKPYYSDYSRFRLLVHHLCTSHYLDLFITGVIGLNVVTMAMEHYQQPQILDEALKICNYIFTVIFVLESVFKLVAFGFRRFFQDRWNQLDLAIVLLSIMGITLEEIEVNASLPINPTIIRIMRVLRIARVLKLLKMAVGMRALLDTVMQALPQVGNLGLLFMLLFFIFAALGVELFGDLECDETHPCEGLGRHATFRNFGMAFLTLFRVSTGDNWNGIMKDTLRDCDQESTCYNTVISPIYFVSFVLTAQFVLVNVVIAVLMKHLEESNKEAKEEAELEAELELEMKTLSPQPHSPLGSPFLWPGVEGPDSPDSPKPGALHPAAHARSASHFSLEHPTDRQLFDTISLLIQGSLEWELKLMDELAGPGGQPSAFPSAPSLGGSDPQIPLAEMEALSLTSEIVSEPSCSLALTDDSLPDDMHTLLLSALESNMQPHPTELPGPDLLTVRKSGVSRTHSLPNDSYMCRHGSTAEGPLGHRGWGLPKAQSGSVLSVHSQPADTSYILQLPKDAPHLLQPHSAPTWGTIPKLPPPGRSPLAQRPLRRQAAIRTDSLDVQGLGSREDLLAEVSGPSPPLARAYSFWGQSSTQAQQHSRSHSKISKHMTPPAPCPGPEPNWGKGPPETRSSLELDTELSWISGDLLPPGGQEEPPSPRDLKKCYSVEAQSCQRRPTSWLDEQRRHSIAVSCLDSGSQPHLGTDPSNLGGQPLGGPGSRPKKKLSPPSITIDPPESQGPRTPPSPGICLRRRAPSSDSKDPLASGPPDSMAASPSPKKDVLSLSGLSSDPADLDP
Experiment: Inhibition of Cav3.1 alpha1G (unknown origin) expressed in HEK293 cells assessed as decrease in KCl-induced depolarization mediated intracellular Ca2+ level at 10 uM by fluo3/AM based high throughput screening assay relative to control
Assay type: cell-based
endpoint.label: inhibition

[[record]]
smiles_notation = "CC(C)Cc1cc(CNS(=O)(=O)c2ccc3ccccc3c2)nn1-c1ccccc1"
endpoint_label = "inhibition"
assay_value = "19.8%"

[[record]]
smiles_notation = "Cc1cc(I)ccc1S(=O)(=O)NCc1cc(CC(C)C)n(-c2ccccc2)n1"
endpoint_label = "inhibition"
assay_value = "22.6%"

[[record]]
smiles_notation = "CC(C)(C)n1nc(CNS(=O)(=O)c2ccccc2)cc1-c1ccccc1"
endpoint_label = "inhibition"
assay_value = "55.5%"

[[record]]
smiles_notation = "CC(C)Cc1cc(CNS(=O)(=O)c2cccc3cccnc23)nn1-c1ccccc1"
endpoint_label = "inhibition"
assay_value = "29.8%"

[[record]]
smiles_notation = "CC(C)Cc1cc(CNS(=O)(=O)c2ccccc2)nn1-c1ccccc1"
endpoint_label = "inhibition"
assay_value = "61.4%"

[[record]]
smiles_notation = "CC(C)Cc1cc(CNS(=O)(=O)c2cccc(I)c2)nn1-c1ccccc1"
endpoint_label = "inhibition"
assay_value = "46.4%"

[[record]]
smiles_notation = "CC(C)(C)n1nc(CNS(=O)(=O)c2ccccc2)cc1-c1cccc(F)c1"
endpoint_label = "inhibition"
assay_value = "51.5%"

